Taken from paper PMC6736635.

# System name: PRC2-AEBP2 (Homo sapiens, UniProt Q15910;Q15022;O75530;Q09028;Q6ZN18 1-746;1-739;1-441;1-425;1-517)
# Test description: fluorescence anisotropy
pKd: −log10 of the molar value.

| Binder | pKd |
| --- | --- |
| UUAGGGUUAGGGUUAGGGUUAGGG (structured_RNA) [G4 24 RNA] | 7.26 |
